Test system: Streptococcus mutans
Assay: Antibacterial activity against Streptococcus mutans ATCC 25175 after 48 hrs by broth microdilution method
Format: functional
Conditions: ATCC 25175, 48 h
Reported MBC values are given for each entry in this list.

[
  {
    "Compound": "C=C[C@@](C)(/C=C/c1ccc(O)c(N)c1)CCC=C(C)C",
    "Unit abbrev": "µg/mL",
    "Readout relation": "=",
    "MBC": 32
  },
  {
    "Compound": "CC[C@](C)(CCCC(C)C)CCc1ccc(O)cc1",
    "Unit abbrev": "µg/mL",
    "Readout relation": "=",
    "MBC": 4
  },
  {
    "Compound": "CC(C)=CCC[C@@](C)(/C=C/c1ccc(N)cc1)/C=C/c1ccc(O)cc1",
    "Unit abbrev": "µg/mL",
    "Readout relation": "=",
    "MBC": 4
  },
  {
    "Compound": "C=C[C@@](C)(/C=C/c1ccc(OC)cc1)CCC=C(C)C",
    "Unit abbrev": "µg/mL",
    "Readout relation": ">",
    "MBC": 128
  },
  {
    "Compound": "C=C[C@@](C)(/C=C/c1ccc(O)cc1)CCC=C(C)C [BAKUCHIOL]",
    "Unit abbrev": "µg/mL",
    "Readout relation": "=",
    "MBC": 2
  },
  {
    "Compound": "C=C[C@@](C)(/C=C/c1ccc(O)c([N+](=O)[O-])c1)CCC=C(C)C",
    "Unit abbrev": "µg/mL",
    "Readout relation": "=",
    "MBC": 128
  },
  {
    "Compound": "Oc1cc(Cl)ccc1Oc1ccc(Cl)cc1Cl [TRICLOSAN]",
    "Unit abbrev": "µg/mL",
    "Readout relation": "=",
    "MBC": 8
  },
  {
    "Compound": "C=C[C@@](C)(/C=C/c1ccc(O)cc1)CCC1OC1(C)C (stereo partly drawn)",
    "Unit abbrev": "µg/mL",
    "Readout relation": ">",
    "MBC": 128
  }
]

Taken from ChEMBL document CHEMBL1177882.
